molecular target: Scavenger receptor class B member 1 (Mus musculus); assay: inhibition of HDL lipid transfer via mSR-BI – ldlA[mSR-BI] CHO cells, powder samples, set 5, dose response (AID 588754); conditions: DiI-HDL uptake fluorescence, 3 h
Listing of recorded AC50 by entry.

Cpd Smiles	AC50
COc1cc(OC)cc(C(=O)Nc2nc(-c3ccc4c(c3)CCN4C(=O)OC(C)(C)C)cs2)c1	0.000909 µM
O=C(Nc1nc(-c2ccc3c(c2)CCN3)cs1)c1ccco1	0.0211 µM
C[C@H](C(=O)NC1CCCC1)N(C(=O)Cn1nnc(-c2ccc3c(c2)OCO3)n1)C1CCCCC1	0.0189 µM
O=C(CN(C(=O)Cn1nnc(-c2ccc3c(c2)OCO3)n1)C1CCCCC1)NC1CCCC1	0.0602 µM

Value source: PubChem BioAssay AID588754
